tested on: OVCAR-8; assay: NCI tumour cell line growth inhibition, 48 h
Calls of active or inactive are those of the source. No stated cut-off is given here; in the data, active = GI50 up to about 1.1 µM and inactive = higher. Square brackets hold non-standard residues; d marks the D form. Peptide text beside a SMILES is read from it. * marks the point of attachment. Boc = CC(C)(C)OC(=O)*; Lac = C[CH](O)C(=O)O; OBn = c1ccc(CO*)cc1
Listed here: items and their measured GI50.

COMPOUND	GI50
O=C1Nc2ccc(Cl)cc2/C1=C\c1c(Cl)nc2sccn12	50.8 µM (inactive)
CNC(=O)C(C)NC(=O)C(Cc1ccccc1)NC(=O)c1ccccc1 (stereo unspecified)	> 100 µM (inactive)
CCCCCCCC(=O)NC(C)(C)C(=O)NCC(=O)NC(CC(C)C)C(=O)NC(C)(C)C(=O)NCC(=O)NCC(=O)NC(CC(C)C)C(=O)NC(C)(C)C(=O)NCC(=O)NC(C(=O)NC(CO)CC(C)C)C(C)CC (stereo unspecified)	4.21 µM (inactive)
COc1cc(C2c3cc4c(cc3C3OC[C@@H]2C3CO)OCO4)cc(OC)c1OC (stereo partly specified)	40.7 µM (inactive)
COc1ccccc1CNC1=Nc2ccncc2S(=O)(=O)N1c1ccccc1	84.7 µM (inactive)
Cc1ccc(C2CC(c3cccc([N+](=O)[O-])c3)=Nc3ccccc3S2)cc1 (stereo unspecified)	24.2 µM (inactive)
Cn1c(=S)c2nc(SCCN3CCCC3)[nH]c2n(C)c1=O	> 100 µM (inactive)
CCn1c(C)nc([N+](=O)[O-])c1Sc1ncc[nH]1	46.1 µM (inactive)
CC(OC(=O)C(Cc1ccccc1)NC(=O)C(Cc1ccccc1)NC(=O)OC(C)(C)C)C(=O)OCc1ccccc1 (stereo not drawn) (Boc-Phe-Phe-[Lac]-OBn; configuration not given here)	> 100 µM (inactive)
O=C(NN1C(=O)CSC1c1cccc(F)c1)c1ccncc1 (stereo unspecified)	> 100 µM (inactive)
N#Cc1c2ccc([N+](=O)[O-])cc2c(=O)n2c1sc1ccc(C(F)(F)F)cc12	> 100 µM (inactive)
NC(=O)CC1OC(=O)Cc2cc3c(c(O)c21)C(=O)c1c(O)cccc1C3=O (stereo unspecified)	> 100 µM (inactive)
CC(=O)OC1CC2CCN3C(=O)c4cc5c(cc4[C@H](C1OC(C)=O)C23)OCO5 (stereo partly specified)	> 100 µM (inactive)
CCOC(=O)c1c(N2CCOCC2)[nH]c(=O)c(C(c2cccs2)c2c(O)c(C(=O)OCC)c(N3CCOCC3)[nH]c2=O)c1O	> 100 µM (inactive)
COC(=O)c1ccccc1N(C(=O)c1ccccc1)c1ccccc1C	37.5 µM (inactive)
C[N+](C)(CCNc1ccc(NCC[N+](C)(C)Cc2ccc([N+](=O)[O-])cc2)c2c1C(=O)c1ccccc1C2=O)Cc1ccc([N+](=O)[O-])cc1	> 100 µM (inactive)

* * *

test system: NCI-H522; test: NCI tumour cell line growth inhibition, 48 h
Calls of active or inactive are those of the source. Rule as the data show it: active = GI50 up to about 1.1 µM and inactive = higher.
Possible outcomes: TRUE = active, FALSE = inactive

In [3]: df
Out[3]:
                                    molecule  experimental_target  class
 0  CC(=O)N(C(C)=O)n1c(Cc2ccc(Cl)cc2)nn(C(C)=O)c1=O             NCI-H522  FALSE
 1  CCN(CC)CC(O)CNc1ccc(NCC2CO2)c2c1C(=O)c1ccccc1C2=O (stereo not given)             NCI-H522   TRUE
 2    CC(C)(C)OC(=O)c1ccc(NCc2cc(O)ccc2O)cc1             NCI-H522   TRUE
 3  C(=N\NC1=NCCN1)/c1ccc(-c2cn3cc(/C=N/NC4=NCCN4)ccc3n2)cc1             NCI-H522  FALSE
 4  CC[C@H]1CC(=O)c2c(cc3c(c2O)C(=O)c2ccccc2C3=O)[C@@]1(C#N)C(=O)OC(C)(C)C             NCI-H522  FALSE
 5                    Nc1ncnc2c1ccn2C/C=C/CO             NCI-H522  FALSE
 6      COc1ccc(SCc2cc(OC)c(OC)c(OC)c2)cc1OC             NCI-H522  FALSE
 7  CC1CC(N)=Nc2ccccc2N1Cc1ccccc1 (stereo not given)             NCI-H522  FALSE
 8             Nc1ccc2nc(Nc3ccc(F)cc3)cnc2c1             NCI-H522  FALSE
 9                NC(=O)/N=C1/CCC2C3CCCC2C13             NCI-H522  FALSE
10  Cc1c2cc[n+](C)cc2c(C)c2c1[nH]c1ccc(OCC(F)(F)F)cc12             NCI-H522  FALSE
11    CC(=O)c1csc2c1C(=O)c1scc(C(C)=O)c1C2=O             NCI-H522   TRUE
12  CN(C)Cc1cc(C(F)(F)F)ccc1C(O)(c1ccccc1)c1ccccc1             NCI-H522  FALSE
13  Cc1ccc(C(=O)O/N=C2/CCCC/C2=C\c2ccccc2)cc1             NCI-H522  FALSE
14  CC(=O)OC1CC2CCN3C(=O)c4cc5c(cc4[C@H](C1OC(C)=O)C23)OCO5 (stereo not given in full)             NCI-H522  FALSE
15  CCOC(=O)C12CCCC1(O)N(NC(N)=O)C(C)=C2C(=O)OC (stereo not given)             NCI-H522  FALSE
16  COC(=O)c1ccccc1N(C(=O)c1ccccc1)c1ccccc1C             NCI-H522  FALSE
17                  CCOc1ccc2c(C)cc(=O)oc2c1             NCI-H522  FALSE
18     O=[N+]([O-])c1ccc(CSCc2ccc(Cl)cc2)cc1             NCI-H522  FALSE
19  COP(=O)(OC)C(N)Cc1c[nH]c2ccccc12 (stereo not given)             NCI-H522  FALSE
20  c1ccc(COC2NCCN2Cc2ccccc2)cc1 (stereo not given)             NCI-H522  FALSE
21  COc1ccc(NC(=O)C(=O)c2c(O)c3ccc(O)cc3oc2=O)c([N+](=O)[O-])c1             NCI-H522  FALSE
22       CC(=O)Nc1ccc2c(C(=O)O)c(C)c(O)nc2n1             NCI-H522  FALSE
23  O=C1NC(O)CCN1C1OC(CO)C(O)C1O (stereo not given)             NCI-H522  FALSE
24  O=c1[nH]nc(Cc2ccc([N+](=O)[O-])cc2)n1CCO             NCI-H522  FALSE
25   COc1ccc(/C=C(\C(C)=O)C(=O)Nc2ccccc2)cc1             NCI-H522  FALSE
26  COc1ccc2cc3c4cc5c(cc4cc[n+]3cc2c1OC)OCO5             NCI-H522  FALSE
27       Cc1cc(=O)oc2c1cc1ccc3cccc4ccc2c1c34             NCI-H522  FALSE
28            C=CCc1cc(C=C(C#N)C#N)cc(OC)c1O             NCI-H522  FALSE
29  C#CCCOC1(OC)N=NC(C)(C)O1 (stereo not given)             NCI-H522  FALSE
